Values were extracted from paper PMC7826789.

tested on: PIK4CB; construct: gene PI4KB; details: Compound Concentration (nM):1000;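 note: KINOMEscan scanMAX binding as percent activity remaining versus control; lower means stronger binding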
Listing of recorded Percent Control by entry.

Previously resolved entries follow.
C[C@@H](Oc1cc(-n2cnc3ccc(OC4CCN(C)CC4)cc32)sc1C(N)=O)c1ccccc1Cl [GSK579289A]	100%
COc1cc2ncn(-c3cc(O[C@H](C)c4ccccc4Cl)c(C(N)=O)s3)c2cc1OC [GSK237701A]	67%

Let us examine a further case.
The measured Percent Control associated with Nc1ncnc2occ(-c3ccc(NC(=O)Nc4cc(C(F)(F)F)ccc4F)cc3)c12 [GW770249X] reads 100%

---

system: p38-gamma; construct: gene MAPK12; conditions: Compound Concentration (nM):1000
Listing of recorded Percent Control by entry.
Write the value in % as a bare number.

Previously resolved entries follow.
COC(=O)Nc1nc2ccc(Oc3ccc(NC(=O)Nc4cc(C(F)(F)F)ccc4F)cc3)cc2s1.Cl [GW693917A]	46
COc1cc(C)c(N(C)C(=O)CN(C)C)cc1Nc1nc(Nc2cccc(F)c2C(N)=O)c2cc[nH]c2n1 [GSK2219385]	56

Let us examine a further case.
The measured Percent Control associated with CCn1c(-c2nonc2N)nc2c(C#CC(C)(C)O)nc(OCCNC)cc21.Cl [GSK949675] reads 84
